Every entry's value here was drawn from paper PMC9736855.

# Study Target: CDK16 (Homo sapiens, UniProt Q00536)
# Construct: purchased in-house DSF panel (SGC Frankfurt)
# Sequence (Q00536 163-478): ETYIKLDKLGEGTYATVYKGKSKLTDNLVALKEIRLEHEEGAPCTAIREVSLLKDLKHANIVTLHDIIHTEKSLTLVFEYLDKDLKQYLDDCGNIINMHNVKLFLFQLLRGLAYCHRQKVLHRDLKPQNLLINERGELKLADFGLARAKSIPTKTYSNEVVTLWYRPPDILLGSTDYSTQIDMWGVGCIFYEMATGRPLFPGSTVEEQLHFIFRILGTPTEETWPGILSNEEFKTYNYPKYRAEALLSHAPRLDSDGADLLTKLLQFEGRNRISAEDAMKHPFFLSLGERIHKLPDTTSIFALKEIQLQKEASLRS
# Measurement Description: DSF
# Format: binding
# Measurement Context: 10 μM compound
Experimental Readout: ΔTm at 10 µM (°C)

Below: 2 molecules and their reported ΔTm at 10 µM.
Molecule	ΔTm at 10 µM [°C]
COC(=O)c1cc(Nc2nc(Nc3ccc(CCNC(=O)OC(C)(C)C)cc3)ncc2Cl)[nH]n1 [22a]	0.3
CC(C)c1cc(Nc2ccnc(Nc3ccc(CCNC(=O)OC(C)(C)C)cc3)n2)[nH]n1 [39a]	7.9

[P] CC(=O)NCCCCCCNc1nccc(Nc2cc(C3CC3)n[nH]2)n1
[Q] Cc1cc(Nc2ccnc(Nc3ccc(CCNC(=O)OC(C)(C)C)cc3)n2)[nH]n1 [38a]
[in] Identify the entry with the larger ΔTm at 10 µM. Options: P and Q // output: label of the selected item
[out] P
(P: 8.8 °C, Q: 5.7 °C)

---

# Study Target: CDK16 (Homo sapiens, UniProt Q00536)
# Construct: purchased in-house DSF panel (SGC Frankfurt)
# Measurement Description: DSF
# Type: binding
# Measurement Context: 10 μM compound
Experimental Readout: ΔTm at 10 µM (°C)

Compound	Unit	ΔTm at 10 µM
CC(C)c1cc(Nc2ccnc(NCCCCCNC(=O)OC(C)(C)C)n2)[nH]n1 [39b]	°C	8.6
N#CCc1ccc(Nc2nccc(Nc3cc(C4CC4)[nH]n3)n2)cc1 [compound 1, reference compound]	°C	10.3
COC(=O)c1cc(Nc2ccnc(Nc3cccc(CCNC(=O)OC(C)(C)C)c3)n2)[nH]n1 [21b]	°C	4.9
CC(C)(C)OC(=O)NCCc1cccc(Nc2nccc(Nc3cc(C4CC4)n[nH]3)n2)c1 [11b]	°C	6.3
